Recorded values, source patent US20240109974A1.

target-or-system: T1, Human TNFR2-His (Sino 10417-H08H) (human, UniProt P20333 23-257)
T1 construct: Bought protein; also called recombinant human TNFR2 protein; not shown: His tag
T1 sequence (looked up): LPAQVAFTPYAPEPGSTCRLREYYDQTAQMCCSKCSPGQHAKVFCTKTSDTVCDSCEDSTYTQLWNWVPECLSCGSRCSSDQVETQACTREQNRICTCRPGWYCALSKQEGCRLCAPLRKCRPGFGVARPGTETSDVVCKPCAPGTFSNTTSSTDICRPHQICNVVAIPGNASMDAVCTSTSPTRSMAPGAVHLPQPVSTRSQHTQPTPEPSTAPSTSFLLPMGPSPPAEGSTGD
experiment-summary: SPR (Biacore T200), antibody captured on Protein A chip
Consider the following binders and their measured kon readings.
The response must be a number in M⁻¹ s⁻¹ with no trailing unit.

Worked examples follow.
1. 219-Hu3 (antibody, V domains shown, also called VH5 + VL5) VH: QVQLVQSGAEVKKPGSSVKVSCKASGYSFTNYWMNWVRQAPGQGLEWMGMIHPSDTETRLNQNFKDRVTITADKSTSTAYMELSSLRSEDTAVYYCARGEGLGAARSVSMDYWGQGTLVTVSS VL: DIQMTQSPSSLSASVGDRVTITCRASQDISNYLNWYQQKPDGTVKLLIYYTAILHSGVPSRFSGSGSGTDYSLTISSLQPEDFATYFCQQGNTLPWTFGQGTKVEIK ... 403000
2. 224-Hu1 (antibody, V domains shown, Humanized form of #224; also called VH8 + VL6) VH: QVQLVQSGAEVKKPGASVKVSCKASGFNNKDIYMHWVRQAPGQGLEWIGRIDPATGNTKHDPKFQDRVTMTSDTSTNTVYMELSSLRSEDTAVYYCARSPYGDFGAMDYWGQGTLVTVSS VL: DIQMTQSPSSLSASVGDRVTITCTASSSVSSNYLHWYQQKPGKAPKLWIYSTSNLPSGVPSRFSGSGSGTDFTLTISSLQPEDFATYYCHQYHRSPWTFGQGTKVEIK ... 117000
3. 219-Hu4 (antibody, V domains shown, also called VH6 + VL5) VH: QVQLVQSGAEVKKPGSSVKVSCKASGYSFTNYWMNWVKQAPGQGLEWIGMIHPSDTETRLNQNFKDKATLTVDKSTSTAYMELSSLRSEDTAVYYCARGEGLGAARSVSMDYWGQGTLVTVSS VL: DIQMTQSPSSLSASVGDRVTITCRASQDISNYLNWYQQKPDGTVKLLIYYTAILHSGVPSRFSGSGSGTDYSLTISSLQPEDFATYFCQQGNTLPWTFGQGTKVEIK ... 484000

In: I am curious: what kon value has been reported for 001-Hu4 (antibody, V domains shown, Humanized form of #001; also called VH2 + VL4) VH: EVQLVESGGGLVQPGGSLRLSCAASGFAFSTYDLSWVRQAPGKGLEWVAYINNGGISTYYSDTVKGRFTISRDNAKNSLYLQMNSLRAEDTAVYYCVRGPFYGSANYFDYWGQGTLVTVSS VL: DIQMTQSPSSLSASVGDRVTITCRTSESIYSNLPWYQQKPGKSPKLLVYDATKLAEGVPSRFSGSGSGTDYTLTISSLQPEDFATYYCQHFWVTPWTFGQGTKVEIK ?
Out: 270000
